The entries below are paired with their reported melting point.

Observe how each entry below is paired with its result.
Compound: CNCCCNC(=O)c1[nH]c(-c2ccccc2)c2cc(Cl)ccc12
melting point: 162 to 164 °C
--
Compound: COc1ccc(Cn2c(N)cc(=O)[nH]c2=S)cc1OCc1ccccc1
melting point: 239 to 240 °C
--
Compound: CSc1cc2cccc(NS(=O)(=O)c3cccs3)c2[nH]1
melting point: 102 to 103 °C
--
Compound: NS(=O)(=O)OCCCOc1ccc(-n2ccnc2)cc1
melting point: 105 to 106 °C
--
Compound: N#Cc1c(N2CCN(C(=O)c3cccs3)CC2)c2cscc2n(Cc2ccc(F)cc2)c1=O
melting point: 238 °C

Exercise: Param item = Cc1nnc(C)n1-c1ccc(C#N)cc1 ; retrieve measured melting point.
Key: > 230 °C

Exercise: What value of melting point has been reported for the following compound? C1=C(c2nc(COc3ccc(CCCCn4cncn4)cc3)co2)CCc2ccccc21
Key: 96 to 97 °C

Exercise: Look up melting point: CCCc1c(OCCCSc2nnc(SCC(=O)N(C)O)s2)ccc(C(C)=O)c1O
Key: 97 to 99 °C

Exercise: I have this compound here, Cc1ccc2nc(NC(=O)c3ccc(C(C)(C)CCc4noc(=O)[nH]4)cc3)cn2c1 , and I need its recorded melting point.
Key: 267 to 268 °C

Exercise: What melting point value was documented for this compound, CNc1nc(-c2cc(F)cc(F)c2)nc2nc(-c3ccco3)nn12 ?
Key: 231 to 234 °C

Exercise: I would be grateful if you could share the reported melting point for COc1ccc(C2(C(=O)Oc3ccc(C(=O)NO)cc3)CCCC2)cc1 .
Key: 143 to 144 °C
